# Test system: HCT-116
# Assay Notes: NCI tumour cell line growth inhibition, 48 h
The source made the active and inactive calls. Rule as the data show it: active = GI50 up to about 1.1 µM and inactive = higher.

[
  {
    "Molecule": "[N-]=[N+]=CC(=O)OCC(N)C(=O)O (configuration not stated)",
    "GI50": "0.403 µM (active)"
  },
  {
    "Molecule": "O=C1C2=C(c3ccccc31)C(c1ccc(Cl)cc1)NC(S)=N2 (configuration not stated)",
    "GI50": "15.1 µM (inactive)"
  },
  {
    "Molecule": "CSC(SC)(C(=O)O)c1cc(-c2c(Cl)cccc2Cl)no1",
    "GI50": "26.9 µM (inactive)"
  },
  {
    "Molecule": "CC(CN1NC12CCCC2)N1NC12CCCC2 (configuration not stated)",
    "GI50": "> 100 µM (inactive)"
  },
  {
    "Molecule": "Nc1c([N+](=O)[O-])nc(Cl)c2nncn12",
    "GI50": "> 45 µM (inactive)"
  },
  {
    "Molecule": "C=CCCC1CCCNC1=S (configuration not stated)",
    "GI50": "> 100 µM (inactive)"
  },
  {
    "Molecule": "N#CC(NCc1cccc(CNC(C#N)c2ccccc2)c1)c1ccccc1 (configuration not stated)",
    "GI50": "23.8 µM (inactive)"
  },
  {
    "Molecule": "CN1CCC(n2[nH]c(-c3ccccc3)c(Cc3ccccc3)c2=O)CC1",
    "GI50": "75.9 µM (inactive)"
  },
  {
    "Molecule": "O=C1OC(=O)c2c1c(-c1ccccc1)nc1ccccc21",
    "GI50": "> 100 µM (inactive)"
  },
  {
    "Molecule": "CCOC(=O)CCCO",
    "GI50": "> 10 µM (inactive)"
  },
  {
    "Molecule": "COC(=O)/C=C/C1C(C(=O)OC)C2(C(=O)OC)CCC1(C(=O)OC)N2 (configuration not stated)",
    "GI50": "> 100 µM (inactive)"
  },
  {
    "Molecule": "CC(C)=C1C(=O)C[C@@]2(C)C[C@H]3OC3(C)CC/C=C(/C)CCC12 (some centres not stated)",
    "GI50": "65 µM (inactive)"
  }
]
